experiment: In vitro metabolic stability assay in microsomes; assay type: in vitro ADME; conditions: both sexes, pH 7.4; human liver microsomes; read-out: Degradation half-life
Please go through the items and note down their half-life at 1 µM.
Provide the reading as a plain figure in min.

QUERY: Which measured half-life at 1 µM value corresponds to COCCOCCOCCOCCn1c(-c2ccc(-n3cc(-c4ccc(OC5OC6OC7(C)CCC8C(C)CCC(C5C)C68OO7)cc4)nn3)cc2)nc2ccccc21 (stereo not drawn) ?
RESULT: 5

QUERY: Which measured half-life at 1 µM value corresponds to CC1CCC2C(C)C(OC(=O)CCC(=O)OCCNc3ccnc4cc(Cl)ccc34)OC3OC4(C)CCC1C32OO4 (stereo not drawn) ?
RESULT: 4

QUERY: Which measured half-life at 1 µM value corresponds to C[C@H]1[C@H](OC(=O)CCC(=O)O)O[C@@H]2O[C@@]3(C)CC[C@H]4[C@H](C)CC[C@@H]1[C@@]24OO3 [Artesunate, artesunate, reference compound] ?
RESULT: 7

---

test system: P. falciparum; experiment: Parasite growth inhibition (cell potency); type: cell-based; details: Plasmodium falciparum; strain and exposure not stated at the place
assayMetric: IC50
Your answer should be a number followed by the unit of measure.

QUERY: Which measured IC50 value corresponds to C[C@H]1[C@@H](O)O[C@@H]2O[C@@]3(C)CC[C@H]4[C@H](C)CC[C@@H]1[C@@]24OO3 [DHA, dihydroartemisinin, reference compound] ?
RESULT: 5 nM

QUERY: Which measured IC50 value corresponds to CCN(CC)CCCC(C)Nc1ccnc2cc(Cl)ccc12 (centres unmarked) [CQ, chloroquine, reference compound] ?
RESULT: 14.5 nM

---

tested on: ring stages of NF54 strain of P. falciparum; assay: Exposure time dependence in drug activity (pLDH); type: cell-based; conditions: Plasmodium falciparum, NF54, 72 h continuous drug, median ± SEM, read-out: IC50, 72 h
Please go through the items and note down their IC50.
Provide the reading as a plain figure in nM.

QUERY: Which measured IC50 value corresponds to CC1CCC2C(C)C(OC(=O)CCC(=O)OCCNc3ccnc4cc(Cl)ccc34)OC3OC4(C)CCC1C32OO4 (stereo not shown) ?
RESULT: 3.8

QUERY: Which measured IC50 value corresponds to COCCOCCOCCOCCn1c(-c2ccc(-n3cc(-c4ccc(OC5OC6OC7(C)CCC8C(C)CCC(C5C)C68OO7)cc4)nn3)cc2)nc2ccccc21 (stereo not shown) ?
RESULT: 1.5

QUERY: Which measured IC50 value corresponds to OC(c1cc(C(F)(F)F)nc2c(C(F)(F)F)cccc12)C1CCCCN1 (stereo not shown) [MFQ, mefloquine, reference compound] ?
RESULT: 10.3

QUERY: Which measured IC50 value corresponds to C[C@H]1[C@@H](O)O[C@@H]2O[C@@]3(C)CC[C@H]4[C@H](C)CC[C@@H]1[C@@]24OO3 [DHA, dihydroartemisinin, reference compound] ?
RESULT: 1.9

---

System: W2 strain (CQ-resistant) of P. falciparum
Experiment: Host cell-mediated drug degradation: antiplasmodial activity of uRBC supernatants
Assay type: cell-based, Plasmodium falciparum
Details: Plasmodium falciparum, 0.16 h; uRBC 1.0% hematocrit; W2, pLDH; median ± SEM; read-out: IC50 of supernatants harvested at 0.16 h
Description: Each well of 96-well plates was filled with 125 µL drug (1000 nM) and 125 µL uninfected red blood cells (uRBC), which were mixed to obtain a final drug concentration of 500 nM and 2.5% or 1.0% hematocrit. The plates were incubated at 37°C in the standard gas mixture. […] Decay in drug concentration was estimated by using the normalized slope values calculated from linear regression fits using the slope values of a standard curve as reference. […]
assayMetric: IC50 (nM)
Provide the reading as a plain figure in nM.

QUERY: Which measured IC50 value corresponds to C[C@H]1[C@@H](O)O[C@@H]2O[C@@]3(C)CC[C@H]4[C@H](C)CC[C@@H]1[C@@]24OO3 [DHA, dihydroartemisinin, reference compound] ?
RESULT: 1.9

QUERY: Which measured IC50 value corresponds to CC1CCC2C(C)C(OC(=O)CCC(=O)OCCNc3ccnc4cc(Cl)ccc34)OC3OC4(C)CCC1C32OO4 (centres unmarked) ?
RESULT: 4.3
